Molecular target: T1, human AMHRII (anti-Mullerian hormone receptor type 2) (human, UniProt Q16671 18-573)
T1 construct: whole, on cells; also called AMHR2; human AMHR2
T1 sequence (looked up): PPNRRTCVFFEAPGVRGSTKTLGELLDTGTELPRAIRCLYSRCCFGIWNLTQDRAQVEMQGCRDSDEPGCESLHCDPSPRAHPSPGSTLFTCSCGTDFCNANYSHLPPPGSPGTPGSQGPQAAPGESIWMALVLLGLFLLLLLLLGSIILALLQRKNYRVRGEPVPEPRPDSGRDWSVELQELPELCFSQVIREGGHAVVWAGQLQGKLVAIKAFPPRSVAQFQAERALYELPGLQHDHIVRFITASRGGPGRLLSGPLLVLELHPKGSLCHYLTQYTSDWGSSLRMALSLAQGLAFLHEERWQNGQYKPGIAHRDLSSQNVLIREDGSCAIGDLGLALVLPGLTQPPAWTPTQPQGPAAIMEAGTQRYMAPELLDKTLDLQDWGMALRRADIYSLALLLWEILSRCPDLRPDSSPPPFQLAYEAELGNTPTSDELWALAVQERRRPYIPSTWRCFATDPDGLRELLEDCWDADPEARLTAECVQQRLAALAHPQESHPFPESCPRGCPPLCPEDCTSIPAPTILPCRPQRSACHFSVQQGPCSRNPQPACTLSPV
Assay: FACS on CHO-K1 cells over-expressing human AMHR2
parameter_measured: EC50 (nM)

- binder: "31D9B3 VH1.2-VL2 hIgG1 (antibody, V domains shown, Humanized, PTM de-risked (VH G55D), human IgG1; also called 31D9B3 VH1.2-VL2 hlgG1) VH: QVQLVQSGAEVKKPGASVKVSCKASGYTFTDYWVSWVRQAPGQGLEWMGEIYPKNDVSNFNEKFKGRVTMTTDTSTSTAYMELRSLRSDDTAVYYCARQRDYWGQGTLVTVSS VL: DVVMTQSPLSLPVTLGQPASISCRSSQSLEYGDGYTYLEWYLQRPGQSPRLLIYGVSNRFSGVPDRFSGSGSGTDFTLKISRVEAEDVGVYYCFQATHDPNTFGQGTKLEIK"
  readout_unit: "nM"
  observed_measurement: 1.51
- binder: "31D9B3 VH1.3-VL2.2 hIgG1 (antibody, V domains shown, Humanized, PTM de-risked, human IgG1; also called 31D9B3 VH1.3-VL2.2 hlgG1) VH: QVQLVQSGAEVKKPGASVKVSCKASGYTFTDYWVSWVRQAPGQGLEWMGEIYPKNQVSNFNEKFKGRVTMTTDTSTSTAYMELRSLRSDDTAVYYCARQRDYWGQGTLVTVSS VL: DVVMTQSPLSLPVTLGQPASISCRSSQSLEYGDRYTYLEWYLQRPGQSPRLLIYGVSNRFSGVPDRFSGSGSGTDFTLKISRVEAEDVGVYYCFQATHDPNTFGQGTKLEIK"
  readout_unit: "nM"
  observed_measurement: 0.703
- binder: "31D9B3 VH1.2-VL2.3 hIgG1 (antibody, V domains shown, Humanized, PTM de-risked, human IgG1; also called 31D9B3 VH1.2-VL2.3 hlgG1) VH: QVQLVQSGAEVKKPGASVKVSCKASGYTFTDYWVSWVRQAPGQGLEWMGEIYPKNDVSNFNEKFKGRVTMTTDTSTSTAYMELRSLRSDDTAVYYCARQRDYWGQGTLVTVSS VL: DVVMTQSPLSLPVTLGQPASISCRSSQSLEYGTGYTYLEWYLQRPGQSPRLLIYGVSNRFSGVPDRFSGSGSGTDFTLKISRVEAEDVGVYYCFQATHDPNTFGQGTKLEIK"
  readout_unit: "nM"
  observed_measurement: 0.617
